All values here come from patent US11452731B2.

- procedure-text: 5-week treatment of ovariectomized rats with SERMs alone or with DHEA: BMD of lumbar spine, femur, tibia (Example 5)
- Format: in vivo, rat
- assay-setup: OVX rats, 5 weeks
- Procedure: Ten to twelve week-old female Sprague-Dawley rats (Crl:CD(SD)Br) (Charles River Laboratory, St-Constant, Canada) weighing approximately 220-270 g at start of treatment were used. The animals were acclimatized to the environmental conditions (temperature: 22±3° C.; humidity: 50±20%; 12-h light-12-h dark cycles, lights on at 07:15 h) for at least 1 week before starting the experiments. […]
test-readout: PROXIMAL TIBIAL METAPHYSIS (PFM) BMD (g/cm^2)
Entry rule: numbers only, all in g/cm^2.

Form field PROXIMAL TIBIAL METAPHYSIS (PFM) BMD, entry C[C@]12CC[C@H](O)CC1=CC[C@@H]1[C@@H]2CC[C@]2(C)C(=O)CC[C@@H]12 [DHEA, dehydroepiandrosterone] : 0.2672

Record summary for CC1=C(c2ccc(O)cc2)[C@H](c2ccc(OCCN3CCCCC3)cc2)Oc2cc(O)ccc21.Cl [EM-652.HCl] : reported PROXIMAL TIBIAL METAPHYSIS (PFM) BMD = 0.2806

Measured PROXIMAL TIBIAL METAPHYSIS (PFM) BMD, Cc1c(-c2ccc(O)cc2)n(Cc2ccc(OCCN3CCCCCC3)cc2)c2ccc(O)cc12 : 0.2750

For reference, reported PROXIMAL TIBIAL METAPHYSIS (PFM) BMD for Cc1c(-c2ccc(O)cc2)n(Cc2ccc(OCCN3CCCCC3)cc2)c2ccc(O)cc12 stands at 0.2805

* * *

- procedure-text: 3-month treatment of ovariectomized rats: lumbar spine BMD, total body fat, serum cholesterol, ALP (Example 4, experiment 1)
- Format: in vivo, rat
- assay-setup: OVX rats, 3 months; E2 1 mg/kg, EM-652.HCl 2.5 mg/kg, DHEA 80 mg/kg
test-readout: LUMBAR SPINE BMD (g/cm^2)
Numbers only; they are read as g/cm^2.

Please fill in: LUMBAR SPINE BMD reported for CC/C(=C(\c1ccccc1)c1ccc(/C=C/C(=O)O)cc1)c1ccccc1 = 0.2299

The recorded LUMBAR SPINE BMD for C[C@]12CC[C@H](O)CC1=CC[C@@H]1[C@@H]2CC[C@]2(C)C(=O)CC[C@@H]12 [DHEA, dehydroepiandrosterone] is 0.2321

Reported LUMBAR SPINE BMD ( CC1=C(c2ccc(O)cc2)[C@H](c2ccc(OCCN3CCCCC3)cc2)Oc2cc(O)ccc21.Cl [EM-652.HCl] ) = 0.2374

For C[C@]12CC[C@@H]3c4ccc(O)cc4CC[C@H]3[C@@H]1CC[C@@H]2O [E2, 17β-estradiol] the compound record lists LUMBAR SPINE BMD as 0.2457

* * *

- procedure-text: 5-week treatment of ovariectomized rats with SERMs alone or with DHEA: BMD of lumbar spine, femur, tibia (Example 5)
- Type: in vivo, rat
- assay-setup: OVX rats, 5 weeks; SERMs 2.5 mg/kg, DHEA 80 mg/kg
test-readout: LUMBAR SPINE (L2-L4) BMD (g/cm^2)
Quick reminder: number only, in g/cm^2, skip the unit.

The compound listed as C[C@]12CC[C@H](O)CC1=CC[C@@H]1[C@@H]2CC[C@]2(C)C(=O)CC[C@@H]12 [DHEA, dehydroepiandrosterone] has a reported LUMBAR SPINE (L2-L4) BMD of 0.2144

The compound identified as Cc1c(-c2ccc(O)cc2)n(Cc2ccc(OCCN3CCCCCC3)cc2)c2ccc(O)cc12 registered its LUMBAR SPINE (L2-L4) BMD at 0.2162

Measured LUMBAR SPINE (L2-L4) BMD of CC1=C(c2ccc(O)cc2)[C@H](c2ccc(OCCN3CCCCC3)cc2)Oc2cc(O)ccc21.Cl [EM-652.HCl] : 0.2232

Measured LUMBAR SPINE (L2-L4) BMD of Cc1c(-c2ccc(O)cc2)n(Cc2ccc(OCCN3CCCCC3)cc2)c2ccc(O)cc12 : 0.2214
